- target_entity: GLP-1 receptor (GLP-1R), primary cAMP assay cell line (human, UniProt P43220 24-463)
- assay_name: cell-based or functional assay
Starred links: 1 amine or outer side, 2 acyl side, 3 side chain; linkers in the order of their positions; H or OH if unused. Non-standard residues stand in square brackets, D forms with d. Groups on a side chain read outwards from the residue. Primed or numbered codes have the meaning given here. No end group written: not given here. *: point of attachment. γGlu = O=C(O)[C@H](CCC(=O)[*:2])N[*:1]; αMeF = C[C@](N)(Cc1ccccc1)C(=O)O; αMeK = C[C@](N)(CCCCN)C(=O)O; Lauroyl = CCCCCCCCCCCC(=O)*; αMeS = C[C@](N)(CO)C(=O)O; PEG2′ = not defined here; Aib = CC(C)(N)C(=O)O
Please note: Satisfied applies when cAMP Primary assay EC50, n1 is 100 pM or greater, and Not satisfied applies otherwise.

Reference set, count: 5
binder: H[Aib]EGS[αMeF]TSDK([PEG2′-PEG2′-γGlu-Lauroyl])SSYLEGEAA[αMeK]K([PEG2′-PEG2′-γGlu-Lauroyl])FIAFK([PEG2′-PEG2′-γGlu-Lauroyl])VEGG-NH2 [SEQ ID NO: 474]
cat: Satisfied
//
binder: H[Aib]EGS[αMeF]TSDV[αMeS]SK([PEG2′-PEG2′-γGlu-Lauroyl])LEGK([PEG2′-PEG2′-γGlu-Lauroyl])AA[αMeK]EFIAFK([PEG2′-PEG2′-γGlu-Lauroyl])VEGG-NH2 [SEQ ID NO: 480]
cat: Not satisfied
//
binder: H[Aib]EGS[αMeF]TSDK([PEG2′-PEG2′-γGlu-Lauroyl])SSYLEGEK([PEG2′-PEG2′-γGlu-Lauroyl])A[αMeK]EFIK([PEG2′-PEG2′-γGlu-Lauroyl])FVVEGG-NH2 [SEQ ID NO: 441]
cat: Satisfied
//
binder: H[Aib]EGS[αMeF]TSDK([PEG2′-PEG2′-γGlu-Lauroyl])SSYLEK([PEG2′-PEG2′-γGlu-Lauroyl])EAA[αMeK]EFIAFK([PEG2′-PEG2′-γGlu-Lauroyl])VEGG-NH2 [SEQ ID NO: 471]
cat: Satisfied
//
binder: H[Aib]EGS[αMeF]TSDV[αMeS]SYK([PEG2′-PEG2′-γGlu-Lauroyl])EGEAA[αMeK]K([PEG2′-PEG2′-γGlu-Lauroyl])FIK([PEG2′-PEG2′-γGlu-Lauroyl])FVVEGG-NH2 [SEQ ID NO: 454]
cat: Not satisfied

Ask: Identify whether the reported cAMP Primary assay EC50, n1 of the following binder is 100 pM or greater: H[Aib]EGS[αMeF]TSDVSK([PEG2′-PEG2′-γGlu-Lauroyl])YLEGEAA[αMeK]K([PEG2′-PEG2′-γGlu-Lauroyl])FIAK([PEG2′-PEG2′-γGlu-Lauroyl])VVEGG-NH2 [SEQ ID NO: 462]
Reply: Not satisfied

Attribution: patent US20200079833A1
